target: Serotonin 5HT1B (Homo sapiens); assay: Off‐target panel: Serotonin 5HT1B; type: cell-based
Sequence (P28222 whole entry): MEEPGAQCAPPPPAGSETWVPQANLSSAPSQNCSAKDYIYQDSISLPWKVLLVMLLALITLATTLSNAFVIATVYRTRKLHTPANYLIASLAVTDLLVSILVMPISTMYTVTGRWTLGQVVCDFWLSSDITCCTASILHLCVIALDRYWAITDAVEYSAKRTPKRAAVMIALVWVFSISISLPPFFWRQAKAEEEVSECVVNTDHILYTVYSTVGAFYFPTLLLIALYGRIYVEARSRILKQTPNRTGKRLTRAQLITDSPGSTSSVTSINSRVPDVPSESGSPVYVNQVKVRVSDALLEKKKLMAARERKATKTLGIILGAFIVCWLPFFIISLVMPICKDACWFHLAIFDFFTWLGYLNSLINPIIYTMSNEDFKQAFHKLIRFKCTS
pIC50: −log10 of the molar value.
quantity.kind: pIC50

Q) Consider the molecule CCC[C@@H](NC(=O)c1cccc2c1CC(=O)N2)[C@@H](O)c1cccc(F)c1C [GSK716] and give its recorded pIC50.
A) < 4.00

---

biological target: Serotonin transporter (Homo sapiens); assay: Off‐target panel: Serotonin transporter (DRX); assay type: cell-based
Sequence (P31645 whole entry): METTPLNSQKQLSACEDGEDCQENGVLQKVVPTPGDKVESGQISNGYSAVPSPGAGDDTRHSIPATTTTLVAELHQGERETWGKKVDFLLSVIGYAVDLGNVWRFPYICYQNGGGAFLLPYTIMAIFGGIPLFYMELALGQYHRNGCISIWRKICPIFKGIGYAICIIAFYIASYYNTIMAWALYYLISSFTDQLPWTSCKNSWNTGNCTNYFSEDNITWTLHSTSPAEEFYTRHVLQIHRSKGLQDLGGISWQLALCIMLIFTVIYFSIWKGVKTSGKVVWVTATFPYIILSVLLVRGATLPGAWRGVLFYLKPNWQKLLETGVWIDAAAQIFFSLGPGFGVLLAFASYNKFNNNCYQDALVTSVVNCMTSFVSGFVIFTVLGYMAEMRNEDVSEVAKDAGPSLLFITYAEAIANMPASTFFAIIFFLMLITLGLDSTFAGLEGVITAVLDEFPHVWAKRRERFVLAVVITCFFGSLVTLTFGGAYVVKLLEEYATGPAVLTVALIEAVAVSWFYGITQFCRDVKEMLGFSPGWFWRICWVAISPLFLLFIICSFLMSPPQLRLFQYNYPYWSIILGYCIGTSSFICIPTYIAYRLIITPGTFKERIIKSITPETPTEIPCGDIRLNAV
quantity.kind: IC50

Q) Note down IC50 recorded for CCC[C@@H](NC(=O)c1cccc2c1CC(=O)N2)[C@@H](O)c1cccc(F)c1C [GSK716]
A) > 100 µM

---

target: Aurora B (STK12) (Homo sapiens, UniProt Q96GD4)
Sequence (Q96GD4 whole entry, species assumed): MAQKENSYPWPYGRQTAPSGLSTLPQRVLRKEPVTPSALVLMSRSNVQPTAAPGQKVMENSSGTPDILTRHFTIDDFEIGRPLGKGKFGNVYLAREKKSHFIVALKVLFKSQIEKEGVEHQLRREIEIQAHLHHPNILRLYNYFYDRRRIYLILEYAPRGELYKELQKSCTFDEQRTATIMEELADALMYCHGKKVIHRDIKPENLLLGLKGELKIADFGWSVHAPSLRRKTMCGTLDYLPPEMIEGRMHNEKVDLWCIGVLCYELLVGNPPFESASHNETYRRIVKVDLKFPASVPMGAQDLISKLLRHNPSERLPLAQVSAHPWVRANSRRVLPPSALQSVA
pIC50: −log10 of the molar value.
quantity.kind: pIC50

Q) Answer with reported pIC50 of CCC[C@@H](NC(=O)c1cccc2c1CC(=O)N2)[C@@H](O)c1cccc(F)c1C
A) < 4.50

---

assay: Total and unbound drug concentrations in blood and liver of Z α1‐antitrypsin transgenic mice; type: in vivo; conditions: female, Z α1-antitrypsin transgenic (hemizygous), mouse, whole blood, oral, 100 mg/kg, 100 mg/kg three times a day, time 128 h; read-out: TOTAL mean concentration ± SD, Blood
quantity.kind: concentration at 128 h
Put down the number, then write its unit next to it.

Q) Identify measured concentration at 128 h associated with CCC[C@@H](NC(=O)c1cccc2c1CC(=O)N2)[C@@H](O)c1cccc(F)c1C [GSK716]
A) 20 µM

---

molecular target: UniProt P28223; test: Off‐target panel: Serotonin 5HT2A; assay type: cell-based
Sequence (P28223 whole entry): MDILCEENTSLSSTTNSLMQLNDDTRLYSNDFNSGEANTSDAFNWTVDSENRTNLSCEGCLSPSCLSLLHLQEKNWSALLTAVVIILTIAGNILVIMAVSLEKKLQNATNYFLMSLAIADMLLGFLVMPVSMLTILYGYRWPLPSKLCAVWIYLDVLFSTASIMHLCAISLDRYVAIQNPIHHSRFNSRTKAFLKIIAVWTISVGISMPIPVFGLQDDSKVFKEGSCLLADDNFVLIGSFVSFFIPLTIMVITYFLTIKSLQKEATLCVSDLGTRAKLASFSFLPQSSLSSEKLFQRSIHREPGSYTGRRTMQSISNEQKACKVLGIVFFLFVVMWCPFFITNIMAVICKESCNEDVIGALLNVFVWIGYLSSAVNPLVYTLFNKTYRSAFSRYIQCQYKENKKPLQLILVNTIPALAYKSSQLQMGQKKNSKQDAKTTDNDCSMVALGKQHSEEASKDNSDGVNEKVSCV
pEC50: −log10 of the molar value.
quantity.kind: pEC50

Q) Please list pEC50 recorded for the compound CCC[C@@H](NC(=O)c1cccc2c1CC(=O)N2)[C@@H](O)c1cccc(F)c1C
A) < 4.60

---

test: Total and unbound drug concentrations in blood and liver of Z α1‐antitrypsin transgenic mice; assay type: in vivo; details: female, Z α1-antitrypsin transgenic (hemizygous), mouse, liver, oral, 30 mg/kg, 30 mg/kg three times a day, time 123 h; read-out: UNBOUND mean concentration ± SD, Liver
quantity.kind: concentration at 123 h (nM)
Give bare numbers, in nM.

Q) Hello, please tell me recorded concentration at 123 h for this one: CCC[C@@H](NC(=O)c1cccc2c1CC(=O)N2)[C@@H](O)c1cccc(F)c1C
A) 91

---

test: Total and unbound drug concentrations in blood and liver of Z α1‐antitrypsin transgenic mice; assay type: in vivo; settings: female, hemizygous Z α1-antitrypsin transgenic, mouse, blood, oral, 100 mg/kg three times a day, time 483 h; read-out: UNBOUND mean concentration ± SD, Blood
quantity.kind: concentration at 483 h
Value and unit, in that order.

Q) Answer with the recorded concentration at 483 h for the compound listed here: CCC[C@@H](NC(=O)c1cccc2c1CC(=O)N2)[C@@H](O)c1cccc(F)c1C
A) 561 nM

---

Biological target: UniProtKB P06239
Sequence (P06239 whole entry, species assumed): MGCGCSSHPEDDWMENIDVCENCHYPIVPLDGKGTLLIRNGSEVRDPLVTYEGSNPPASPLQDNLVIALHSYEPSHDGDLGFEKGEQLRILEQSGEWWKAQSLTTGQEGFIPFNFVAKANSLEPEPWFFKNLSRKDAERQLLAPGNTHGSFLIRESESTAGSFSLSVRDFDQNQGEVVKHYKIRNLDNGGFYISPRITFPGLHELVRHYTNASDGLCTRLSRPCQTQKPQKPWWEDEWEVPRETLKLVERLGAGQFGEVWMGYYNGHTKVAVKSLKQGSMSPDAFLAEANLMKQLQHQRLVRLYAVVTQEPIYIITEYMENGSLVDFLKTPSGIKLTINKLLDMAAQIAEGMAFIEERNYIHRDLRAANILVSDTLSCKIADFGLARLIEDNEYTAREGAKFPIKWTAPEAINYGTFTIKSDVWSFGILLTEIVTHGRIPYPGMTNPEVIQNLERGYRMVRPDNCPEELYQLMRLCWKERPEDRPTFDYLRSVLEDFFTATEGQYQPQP
Assay: Off‐target panel: LCK
Assay type: biochemical
Details: Inhibition, read-out: Mean (PXC50)
Procedure: GSK716 selectivity and PK properties were profiled in order to investigate the suitability of GSK716 for progression into in vivo studies and the potential for taking it forward as a clinical candidate for testing in humans. Since GSK716 results in loss of inhibitory activity of α1‐antitrypsin, the effect of the compound was assessed on other closely related serpins. […]
pIC50: −log10 of the molar value.
quantity.kind: pIC50

Q) Provide measured pIC50 on UniProtKB P06239 for CCC[C@@H](NC(=O)c1cccc2c1CC(=O)N2)[C@@H](O)c1cccc(F)c1C please.
A) < 4.50
